- measurement target: CDK1/cyclinB (h) (Homo sapiens, UniProt P06493)
- Sequence (P06493 whole entry): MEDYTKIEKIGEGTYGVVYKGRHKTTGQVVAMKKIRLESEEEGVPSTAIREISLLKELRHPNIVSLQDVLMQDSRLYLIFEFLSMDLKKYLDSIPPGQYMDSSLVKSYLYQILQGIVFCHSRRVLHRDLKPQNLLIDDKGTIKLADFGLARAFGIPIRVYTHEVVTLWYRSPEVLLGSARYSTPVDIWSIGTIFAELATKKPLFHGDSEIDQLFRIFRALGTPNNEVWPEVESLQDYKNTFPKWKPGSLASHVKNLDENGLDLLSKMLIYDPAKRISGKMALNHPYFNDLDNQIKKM
- Sequence (P14635 whole entry partner): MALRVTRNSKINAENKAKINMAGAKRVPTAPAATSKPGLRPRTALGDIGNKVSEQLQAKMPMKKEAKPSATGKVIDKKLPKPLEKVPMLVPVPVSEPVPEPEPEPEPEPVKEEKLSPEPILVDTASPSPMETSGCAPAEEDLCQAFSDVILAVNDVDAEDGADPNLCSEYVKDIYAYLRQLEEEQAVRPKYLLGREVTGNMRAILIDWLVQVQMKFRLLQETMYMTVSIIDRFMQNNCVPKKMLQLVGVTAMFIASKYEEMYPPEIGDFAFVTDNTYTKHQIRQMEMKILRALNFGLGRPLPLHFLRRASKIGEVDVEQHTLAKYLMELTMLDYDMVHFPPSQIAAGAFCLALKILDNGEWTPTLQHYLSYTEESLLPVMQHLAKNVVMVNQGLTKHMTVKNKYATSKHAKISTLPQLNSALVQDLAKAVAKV
- test details: Kinase profiling C3.2 CDK1/cyclinB human
- Type: biochemical
- experimental setup: test concentration of 10^−6 M
Quick reference: C3.2 score of the listed items.
reported endpoint: C3.2 score

{"compound": "CN1CC(=O)NCC#Cc2cc(ccn2)-c2ncnc(n2)Nc2cccc(c2)C1 [Compound 1]", "result": "4 (Score 4 = >80% inhibition)"}
{"compound": "O=C1NCCc2cccc(c2)Nc2ncnc(n2)-c2ccnc(c2)CCCN2CCCC1C2 (centres unmarked) [Compound 26]", "result": "1 (Score 1 = 10-30% inhibition)"}
{"compound": "O=C1CN2CCN(CC2)Cc2cccc(c2)Nc2ncnc(n2)-c2cccc(c2)NCCN1 [Compound 58]", "result": "2 (Score 2 = 30-60% inhibition)"}
{"compound": "CN1CCC(=O)NCCNc2cc(ccn2)-c2ncnc(n2)Nc2cccc(c2)C1 [Compound 20]", "result": "3 (Score 3 = 60-80% inhibition)"}
{"compound": "O=C1CN2CCN(CC2)Cc2cccc(c2)Nc2ncnc(n2)-c2ccnc(c2)CCCN1 [Compound 36]", "result": "4 (Score 4 = >80% inhibition)"}
{"compound": "O=C1CN2CCN(CC2)Cc2cc(Cl)cc(c2)Nc2ncnc(n2)-c2ccnc(c2)CCCN1 [Compound 41]", "result": "4 (Score 4 = >80% inhibition)"}
{"compound": "CN1CCCc2cc(ccn2)-c2ncnc(n2)Nc2cccc(c2)CNC(=O)C1 [Compound 7]", "result": "4 (Score 4 = >80% inhibition)"}
{"compound": "O=C1CCN2CCN(CC2)Cc2cccc(c2)Nc2ncnc(n2)-c2ccnc(c2)CCCN1 [Compound 35]", "result": "4 (Score 4 = >80% inhibition)"}

----------
- measurement target: CDK3/cyclinE (h) (Homo sapiens)
- test details: Kinase profiling C3.5 CDK3/cyclinE human
- Type: biochemical
- experimental setup: test concentration of 10^−6 M
Measured C3.5 score of individual entries

{"molecule": "CN1CC(=O)NCCCc2cc(ccn2)-c2ncnc(n2)Nc2cc(Cl)ccc2C1", "C3.5 score": "4 (Score 4 = >80% inhibition)"}
{"molecule": "CCN1CC(=O)NCCCc2cccc(c2)-c2ncnc(n2)Nc2cccc(c2)C1", "C3.5 score": "2 (Score 2 = 30-60% inhibition)"}
{"molecule": "CN1CCC(=O)NCCNc2cc(ccn2)-c2ncnc(n2)Nc2cccc(c2)C1 [Compound 17]", "C3.5 score": "4 (Score 4 = >80% inhibition)"}
{"molecule": "O=C1NCCCc2cncc(c2)-c2ncnc(n2)Nc2cccc(c2)CN[C@H]1CO", "C3.5 score": "3 (Score 3 = 60-80% inhibition)"}
{"molecule": "CCN1CCCc2cc(ccn2)-c2ncnc(n2)Nc2cccc(c2)CCNC(=O)C1", "C3.5 score": "4 (Score 4 = >80% inhibition)"}
{"molecule": "O=C1NCCCc2cc(ccn2)-c2ncnc(n2)Nc2cccc(c2)CN2CCCC1C2 (stereo not shown)", "C3.5 score": "1 (Score 1 = 10-30% inhibition)"}
{"molecule": "CN1CC(=O)NCC#Cc2cc(ccn2)-c2ncnc(n2)Nc2cccc(c2)C1", "C3.5 score": "4 (Score 4 = >80% inhibition)"}
{"molecule": "O=C1NCCNc2cc(ccn2)-c2ncnc(n2)Nc2cccc(c2)CN2CCC[C@H]12", "C3.5 score": "3 (Score 3 = 60-80% inhibition)"}
{"molecule": "O=C1CN2CCN(CC2)Cc2cccc(c2)Nc2ncnc(n2)-c2cncc(c2)CCCN1", "C3.5 score": "2 (Score 2 = 30-60% inhibition)"}
{"molecule": "O=C1CN2CCN(CC2)Cc2cccc(c2)Nc2ncnc(n2)-c2ccc(F)c(c2)CCCN1", "C3.5 score": "3 (Score 3 = 60-80% inhibition)"}

----------
- measurement target: CDK7/cyclinH/MAT1 (h) (Homo sapiens)
- Sequence (P50613 whole entry): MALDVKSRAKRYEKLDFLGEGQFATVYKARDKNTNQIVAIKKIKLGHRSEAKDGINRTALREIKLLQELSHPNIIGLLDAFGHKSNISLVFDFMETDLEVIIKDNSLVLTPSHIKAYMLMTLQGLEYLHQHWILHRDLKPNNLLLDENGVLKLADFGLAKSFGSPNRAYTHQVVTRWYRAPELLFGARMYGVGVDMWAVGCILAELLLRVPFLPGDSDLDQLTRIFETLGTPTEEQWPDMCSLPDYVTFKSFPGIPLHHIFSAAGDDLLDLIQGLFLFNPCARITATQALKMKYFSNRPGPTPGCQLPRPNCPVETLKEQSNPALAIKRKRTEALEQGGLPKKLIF
- Sequence (P51946 whole entry partner): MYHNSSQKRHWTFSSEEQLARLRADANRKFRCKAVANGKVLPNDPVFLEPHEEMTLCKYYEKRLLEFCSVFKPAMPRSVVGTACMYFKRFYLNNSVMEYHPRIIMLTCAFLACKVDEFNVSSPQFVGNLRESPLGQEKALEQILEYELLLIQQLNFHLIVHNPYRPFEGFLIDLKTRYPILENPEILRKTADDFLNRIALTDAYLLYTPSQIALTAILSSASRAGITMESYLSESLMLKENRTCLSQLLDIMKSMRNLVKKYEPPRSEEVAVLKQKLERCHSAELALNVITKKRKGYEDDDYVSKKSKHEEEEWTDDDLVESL
- Sequence (P51948 whole entry partner): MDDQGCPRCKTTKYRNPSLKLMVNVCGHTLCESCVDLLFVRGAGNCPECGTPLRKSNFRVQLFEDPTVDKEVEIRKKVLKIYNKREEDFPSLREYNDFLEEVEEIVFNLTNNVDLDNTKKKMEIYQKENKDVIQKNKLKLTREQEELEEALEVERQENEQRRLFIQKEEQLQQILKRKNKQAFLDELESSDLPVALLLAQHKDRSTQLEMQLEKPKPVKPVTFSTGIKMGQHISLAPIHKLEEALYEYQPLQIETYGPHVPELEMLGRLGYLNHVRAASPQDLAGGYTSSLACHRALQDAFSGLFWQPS
- test details: Kinase profiling C3.8 CDK7/cyclinH/MAT1 human
- Type: biochemical
- experimental setup: CDK7/cyclinH/MAT1, test concentration of 10^−6 M
reported endpoint: C3.8 score

{"structure as smiles": "O=C1NCCCc2cccc(c2)-c2ncnc(n2)Nc2cccc(c2)CN[C@H]1CO", "result": "1 (Score 1 = 10-30% inhibition)"}
{"structure as smiles": "O=C1NCCCc2cc(ccn2)-c2ncnc(n2)Nc2cc(Cl)cc(c2)CN2CCC[C@@H]12", "result": "3 (Score 3 = 60-80% inhibition)"}
{"structure as smiles": "O=C1NCCCc2cc(ccn2)-c2ncnc(n2)Nc2cccc(c2)CN2C[C@H](O)C[C@@H]12", "result": "2 (Score 2 = 30-60% inhibition)"}
{"structure as smiles": "O=C1NCCCNc2cc(ccn2)-c2ncnc(n2)Nc2cccc(c2)CN2CCC[C@@H]12", "result": "2 (Score 2 = 30-60% inhibition)"}

----------
- measurement target: CDK3/cyclinE (h) (Homo sapiens, UniProt Q00526)
- Sequence (Q00526 whole entry): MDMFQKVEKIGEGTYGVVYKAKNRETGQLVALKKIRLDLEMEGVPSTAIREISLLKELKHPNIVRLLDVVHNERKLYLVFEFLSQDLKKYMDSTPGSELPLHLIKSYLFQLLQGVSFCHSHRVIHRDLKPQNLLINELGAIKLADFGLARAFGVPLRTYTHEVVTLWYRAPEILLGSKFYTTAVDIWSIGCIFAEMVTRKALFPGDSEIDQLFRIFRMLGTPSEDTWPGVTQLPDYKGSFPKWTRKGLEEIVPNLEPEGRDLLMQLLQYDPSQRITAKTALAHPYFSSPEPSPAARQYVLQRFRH
- Sequence (P24864 whole entry partner): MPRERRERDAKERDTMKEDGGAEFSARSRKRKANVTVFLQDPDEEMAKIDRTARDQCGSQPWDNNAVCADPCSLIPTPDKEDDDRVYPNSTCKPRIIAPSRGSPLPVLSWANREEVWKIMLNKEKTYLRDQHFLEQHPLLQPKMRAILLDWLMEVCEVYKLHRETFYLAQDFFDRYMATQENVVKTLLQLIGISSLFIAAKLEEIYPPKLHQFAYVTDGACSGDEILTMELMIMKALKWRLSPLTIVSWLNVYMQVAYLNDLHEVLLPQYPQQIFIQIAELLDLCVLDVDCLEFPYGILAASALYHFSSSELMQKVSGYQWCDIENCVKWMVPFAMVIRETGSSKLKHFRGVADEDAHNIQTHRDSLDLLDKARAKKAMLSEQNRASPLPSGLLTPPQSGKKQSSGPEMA
- test details: Kinase profiling C3.5 CDK3/cyclinE human
- Type: biochemical
- experimental setup: test concentration of 10^−6 M
Measured C3.5 score, listed per entry for reference.
reported endpoint: C3.5 score

{"molecule": "O=C1CCN2CCN(CC2)Cc2cc(Cl)cc(c2)Nc2ncnc(n2)-c2ccnc(c2)CCCN1 [Compound 37]", "result": "4 (Score 4 = >80% inhibition)"}
{"molecule": "O=C1NCCCc2cc(ccc2F)-c2ncnc(n2)Nc2cc(Cl)cc(c2)CN[C@H]1CO [Compound 71]", "result": "4 (Score 4 = >80% inhibition)"}
{"molecule": "CN1CC(=O)NCCCc2cc(ccn2)-c2ncnc(n2)Nc2cc(Cl)cc(c2)C1 [Compound 33]", "result": "4 (Score 4 = >80% inhibition)"}
{"molecule": "CCN1CC(=O)NCCCc2cc(ccn2)-c2ncnc(n2)Nc2cc(Cl)cc(c2)C1 [Compound 34]", "result": "4 (Score 4 = >80% inhibition)"}
{"molecule": "O=C1CN2CCN(CC2)Cc2cccc(c2)Nc2ncnc(n2)-c2ccnc(c2)CCCN1 [Compound 9]", "result": "3 (Score 3 = 60-80% inhibition)"}
{"molecule": "O=C1NCCc2cccc(c2)Nc2ncnc(n2)-c2ccnc(c2)CCCN2C[C@H](O)C[C@@H]12 [Compound 25]", "result": "3 (Score 3 = 60-80% inhibition)"}
{"molecule": "CN1CCC(=O)NCCCc2cc(ccn2)-c2ncnc(n2)Nc2cc(Cl)cc(c2)C1 [Compound 32]", "result": "3 (Score 3 = 60-80% inhibition)"}
{"molecule": "O=C1CCN2CCN(CC2)Cc2cccc(c2)Nc2ncnc(n2)-c2ccnc(c2)CCCN1 [Compound 35]", "result": "4 (Score 4 = >80% inhibition)"}

----------
- measurement target: CDK2/cyclinA (h) (Homo sapiens, UniProt P24941)
- test details: Kinase profiling C3.3 CDK2/cyclinA human
- Type: biochemical
- experimental setup: test concentration of 10^−6 M
C3.3 score by entry:

{"molecule": "O=C1NCCCc2cc(ccn2)-c2ncnc(n2)Nc2cccc(c2)CN2CCCC12 (centres unmarked)", "C3.3 score": "4 (Score 4 = >80% inhibition)"}
{"molecule": "O=C1NCCCc2cc(ccn2)-c2ncnc(n2)Nc2cc(Cl)cc(c2)CN2CCC[C@@H]12", "C3.3 score": "4 (Score 4 = >80% inhibition)"}
{"molecule": "CN1CCC(=O)NCCCc2cc(ccn2)-c2ncnc(n2)Nc2cccc(c2)C1", "C3.3 score": "4 (Score 4 = >80% inhibition)"}
{"molecule": "O=C1NCCCc2cccc(c2)-c2ncnc(n2)Nc2cccc(c2)CN[C@H]1CO", "C3.3 score": "4 (Score 4 = >80% inhibition)"}
{"molecule": "O=C1NCCCc2cc(ccc2F)-c2ncnc(n2)Nc2cc(Cl)cc(c2)CN[C@H]1CO", "C3.3 score": "2 (Score 2 = 30-60% inhibition)"}
{"molecule": "CN1CC(=O)NCCCc2cc(ccn2)-c2ncnc(n2)Nc2cc(Cl)cc(c2)C1", "C3.3 score": "4 (Score 4 = >80% inhibition)"}
{"molecule": "O=C1CC2CCN(CCCc3cc(ccn3)-c3ncnc(n3)Nc3cccc(c3)CCN1)CC2", "C3.3 score": "3 (Score 3 = 60-80% inhibition)"}
{"molecule": "O=C1NCCCc2cncc(c2)-c2ncnc(n2)Nc2cccc(c2)CN[C@H]1CO", "C3.3 score": "3 (Score 3 = 60-80% inhibition)"}
{"molecule": "O=C1CN2CCN(CC2)Cc2cccc(c2)Nc2ncnc(n2)-c2ccnc(c2)CCCN1 [Compound 36]", "C3.3 score": "4 (Score 4 = >80% inhibition)"}
{"molecule": "O=C1CCN2CCN(CC2)Cc2cccc(c2)Nc2ncnc(n2)-c2ccnc(c2)CCCN1", "C3.3 score": "4 (Score 4 = >80% inhibition)"}
{"molecule": "CC(C)N1CC(=O)NCCCc2cc(ccn2)-c2ncnc(n2)Nc2cccc(c2)C1", "C3.3 score": "2 (Score 2 = 30-60% inhibition)"}
{"molecule": "O=C1CNCc2cccc(c2)Nc2ncnc(n2)-c2cncc(c2)CCCN1", "C3.3 score": "2 (Score 2 = 30-60% inhibition)"}
{"molecule": "O=C1CCN2CCN(CC2)Cc2cc(Cl)cc(c2)Nc2ncnc(n2)-c2ccnc(c2)CCCN1", "C3.3 score": "4 (Score 4 = >80% inhibition)"}
{"molecule": "CN1CC(=O)NCC#Cc2cc(ccn2)-c2ncnc(n2)Nc2cccc(c2)C1", "C3.3 score": "4 (Score 4 = >80% inhibition)"}
{"molecule": "CN1CC(=O)NCCCc2cc(ccn2)-c2ncnc(n2)Nc2cc(Cl)ccc2C1", "C3.3 score": "2 (Score 2 = 30-60% inhibition)"}
{"molecule": "CN1CCCC(=O)NCCc2cccc(c2)Nc2ncnc(n2)-c2ccnc(c2)CCC1", "C3.3 score": "3 (Score 3 = 60-80% inhibition)"}
{"molecule": "CN1CC(=O)NCCCc2cc(ccn2)-c2ncnc(n2)Nc2cccc(c2)C1 [Compound 8]", "C3.3 score": "4 (Score 4 = >80% inhibition)"}
